Recorded measurements of Relative activity ratio (EC stalk), one per entry
- Test system: Echinochloa crus-galli
- Assay protocol: Pre-emergence herbicidal inhibition assay, Petri dish test, EC
- Format: in vivo
- Assay setup: relative to FOS

| Compound | Measured on | Relative activity ratio (EC stalk) |
| --- | --- | --- |
| CC(C)c1onc(O)c1CCP(=O)(O)O | Echinochloa crus-galli | 1.5 fold |
| CC(C)c1onc(O)c1CC(P(=O)(O)O)P(=O)(O)O [Compound 13d] | Echinochloa crus-galli | 2.8 fold |
| Cc1onc(O)c1CC(P(=O)(O)O)P(=O)(O)O [Compound 13a] | Echinochloa crus-galli | 3.8 fold |
| Cc1n[nH]c(C(F)(F)F)c1CC(P(=O)(O)O)P(=O)(O)O [Compound 12i] | Echinochloa crus-galli | 0.8 fold |
| Cc1onc(C(F)(F)F)c1CC(P(=O)(O)O)P(=O)(O)O [Compound 13i] | Echinochloa crus-galli | 1.1 fold |
| O=P(O)(O)C(Cc1c(O)noc1C(F)(F)F)P(=O)(O)O [Compound 13e] | Echinochloa crus-galli | 9.4 fold |
| CC1(C)CON(CCCC(P(=O)(O)O)P(=O)(O)O)C1=O | Echinochloa crus-galli | 1.5 fold |
| CCCc1onc(O)c1CC(P(=O)(O)O)P(=O)(O)O [Compound 13c] | Echinochloa crus-galli | 0.8 fold |
| CC1(C)CON(CCCP(=O)(O)O)C1=O | Echinochloa crus-galli | 0.4 fold |
| Cc1onc(O)c1CCP(=O)(O)O | Echinochloa crus-galli | 2.0 fold |
| CCc1onc(O)c1CC(P(=O)(O)O)P(=O)(O)O [Compound 13b] | Echinochloa crus-galli | 1.1 fold |

----------
- System: Echinochloa crus-galli
- Assay protocol: Pre-emergence herbicidal inhibition assay, Petri dish test, EC
- Assay type: in vivo
- Assay setup: Echinochloa crus-galli, 168 h, root, 7 days, read-out: EC50 EC Root
Below, each entry is listed alongside its reported EC50.

| Compound | Units | Readout qualifier | EC50 |
| --- | --- | --- | --- |
| CCc1n[nH]c(CC)c1CCP(=O)(O)O | µg/mL | = | 71.6 |
| O=P(O)(O)C(Cc1c(O)noc1C(F)(F)F)P(=O)(O)O [Compound 13e] | µg/mL | = | 7.4 |
| Cc1n[nH]c(C(F)(F)F)c1CC(P(=O)(O)O)P(=O)(O)O [Compound 12i] | µg/mL | = | 53.1 |
| CCCc1onc(O)c1CCP(=O)(O)O | µg/mL | = | 65.4 |
| O=CN(O)CCCP(=O)(O)O [FOS, Fosmidomycin, reference compound] | µg/mL | = | 40.2 |
| CC(C)c1onc(O)c1CCP(=O)(O)O | µg/mL | = | 40.1 |
| CCc1noc(CC)c1CC(P(=O)(O)O)P(=O)(O)O [Compound 13h] | µg/mL | = | 48 |
| CCc1n[nH]c(CC)c1CC(P(=O)(O)O)P(=O)(O)O [Compound 12h] | µg/mL | = | 44.2 |
| Cc1onc(O)c1CC(P(=O)(O)O)P(=O)(O)O [Compound 13a] | µg/mL | = | 27.1 |
| CC(C)c1n[nH]c(O)c1CC(P(=O)(O)O)P(=O)(O)O [Compound 12d] | µg/mL | > | 100 |
